target: human plasma kallikrein (Homo sapiens (Human)); test: Kallikrein inhibition assay (FLINT) utilizing a quenched AMC peptide substrate; format: biochemical; conditions: 30 min preincubation, kinetic reads over 30 min, Z-Gly-Pro-Arg-AMC substrate 50 μM; read-out: Kallikrein Kin Inh IC50
recorded-metric: log10 of IC50 (log10 of the value in nM)
All values: base-10 log of IC50 in nM.

Example cases with answers are listed next.
compound: NC(=O)c1scc(-c2c[nH]c([C@@H]3CC[C@@H]4CC(c5c(-n6cnnn6)ccc(Cl)c5F)=CC(=O)N43)n2)c1F
log10 of IC50: 0.23

compound: Cc1cc(C(=O)Nc2nccc(-c3cnc([C@@H]4CC[C@@H]5CC(c6c(-n7cnnn7)ccc(Cl)c6F)=CC(=O)N54)[nH]3)c2F)on1
log10 of IC50: 1.69

compound: CNc1ncccc1-c1cnc([C@@H]2CC[C@H]3CC(c4c(-n5cnnn5)ccc(Cl)c4F)=CC(=O)N32)[nH]1
log10 of IC50: 2.90

// query Form field: reported log10 of IC50 of Cn1ncc(NC(=O)C2CC2)c1-c1c[nH]c([C@@H]2CC[C@H]3CC(c4c(-n5cnnn5)ccc(Cl)c4F)=CC(=O)N32)n1
// result 1.19

// query Item: CC1CC2CC(c3c(-n4cnnn4)ccc(Cl)c3F)=CC(=O)N2C1c1ncc(-c2ccc(N)nc2F)[nH]1 (stereo not drawn)
// result 1.66

// query Item: NC(=O)c1cc(-c2cnc([C@@H]3CC[C@@H]4CC(c5c(-n6cnnn6)ccc(Cl)c5F)=CC(=O)N43)[nH]2)ccc1F
// result 0.83

---

Molecular target: human plasma kallikrein (Homo sapiens (Human))
Assay: Kallikrein inhibition assay (FLINT) utilizing a quenched AMC peptide substrate
Format: biochemical
Conditions: 30 min preincubation, kinetic reads over 30 min, Z-Gly-Pro-Arg-AMC substrate 50 μM; read-out: Kallikrein Kin Inh IC50
Protocol: Biological Example 2: Kallikrein Inhibition Assay Utilizing a Quenched AMC Peptide Substrate A fluorescence intensity (FLINT) based assay was used to monitor inhibition of human plasma kallikrein. […] Test compound(s) were run in an 11-point, 3-fold serial dilution with a final top compound concentration of 1 μM. […] The assay was run with kinetic (KIN) reads at 5 min intervals over 30 minutes. […]
recorded-metric: log10 IC50 (log10 of the value in nM)
All values: base-10 log of IC50 in nM.

Example cases with answers are listed next.
compound: [2H]C([2H])([2H])C(=O)Nc1cnc(C(F)(F)F)cc1-c1cnc([C@@H]2CC[C@@H]3CC(c4c(-n5cnnn5)ccc(Cl)c4F)=CC(=O)N32)[nH]1
log10 IC50: 2.81
//
compound: O=C1C=C(c2c(-n3cnnn3)ccc(Cl)c2F)C[C@H]2CC[C@@H](c3nc(F)c(-c4ccnc(-c5ccn[nH]5)c4)[nH]3)N12 (single isomer, unassigned)
log10 IC50: 0.26
//
compound: Nc1ccc(-c2c[nH]c([C@@H]3CCC4CC(c5c(-c6cnc[nH]6)ccc(Cl)c5F)=CC(=O)N43)n2)c(F)n1 (stereo partly drawn)
log10 IC50: 2.79
//
compound: CONC(=O)c1nccc(-c2cnc([C@@H]3CC[C@@H]4CC(c5c(-n6cnnn6)ccc(Cl)c5F)=CC(=O)N43)[nH]2)c1F
log10 IC50: 1.73
//
compound: O=C1Nc2ccc(-c3cnc([C@@H]4CC[C@H]5CC(c6c(-n7cnnn7)ccc(Cl)c6F)=CC(=O)N54)[nH]3)cc2CO1 (relative stereo)
log10 IC50: 0.28

Here is the next item to consider.
// query Form field: reported log10 IC50 of Nc1cc(-c2[nH]c([C@@H]3CC[C@@H]4CC(c5c(-n6cnnn6)ccc(Cl)c5F)=CC(=O)N43)nc2F)c(Cl)cn1
// result 1.83

---

biological target: human plasma kallikrein (Homo sapiens (Human)); test: Kallikrein inhibition assay (FLINT) utilizing a quenched AMC peptide substrate; assay type: biochemical; conditions: 30 min preincubation, kinetic reads over 30 min, Z-Gly-Pro-Arg-AMC substrate 50 μM; read-out: Kallikrein Kin Inh IC50
recorded-metric: IC50

Example cases with answers are listed next.
compound: O=C1C=C(c2c(-n3cnnn3)ccc(Cl)c2F)C[C@H]2CC[C@@H](c3ncc(-c4ccncc4F)[nH]3)N12
recorded-metric: IC50
result: 29 nM
--
compound: CCOC(=O)NCc1nccc(-c2cnc([C@@H]3CC[C@@H]4CC(c5c(-n6cnnn6)ccc(Cl)c5F)=CC(=O)N43)[nH]2)c1F
recorded-metric: IC50
result: 35.5 nM
--
compound: C[C@H](C#N)c1nccc(-c2cnc([C@@H]3CCC4CC(c5c(-n6cnnn6)ccc(Cl)c5F)=CC(=O)N43)[nH]2)c1F (relative stereo)
recorded-metric: IC50
result: 28.8 nM
--
compound: Cn1c(=O)[nH]c2ccc(-c3cnc([C@@H]4CC[C@@H]5CC(c6c(-n7cnnn7)ccc(Cl)c6F)=CC(=O)N54)[nH]3)cc21 (relative stereo)
recorded-metric: IC50
result: 2 nM
--
compound: O=C1C=C(c2c(-n3cnnn3)ccc(Cl)c2F)C[C@H]2CC[C@@H](c3ncc(-c4ccc5cc[nH]c5c4)[nH]3)N12
recorded-metric: IC50
result: 17.7 nM

Here is the next item to consider.
// query Which IC50 is reported with human plasma kallikrein (Homo sapiens (Human)) for this entry: Cn1cc(-c2ccccc2NC(=O)C2CC2)nc1[C@@H]1CC[C@H]2CC(c3c(-n4cnnn4)ccc(Cl)c3F)=CC(=O)N21 (relative stereo) ?
// result 323 nM

---

Target: human plasma kallikrein (Homo sapiens (Human))
Experiment: Kallikrein inhibition assay (FLINT) utilizing a quenched AMC peptide substrate
Type: biochemical
Conditions: 30 min preincubation, kinetic reads over 30 min, Z-Gly-Pro-Arg-AMC substrate 50 μM; read-out: Kallikrein Kin Inh IC50
Description: Biological Example 2: Kallikrein Inhibition Assay Utilizing a Quenched AMC Peptide Substrate A fluorescence intensity (FLINT) based assay was used to monitor inhibition of human plasma kallikrein. […] Test compound(s) were run in an 11-point, 3-fold serial dilution with a final top compound concentration of 1 μM. […] The assay was run with kinetic (KIN) reads at 5 min intervals over 30 minutes. […]
recorded-metric: IC50 (nM)
Provide only the numeric value, understood in nM.

compound: [2H]c1cc(-c2c[nH]c([C@@H]3CC[C@@H]4CC(c5c(F)c(Cl)cc([2H])c5-n5cnnn5)=CC(=O)N43)n2)c(F)nc1N [Example 125]
IC50 / nM: 9.6

compound: O=C(Nc1cnccc1-c1c[nH]c([C@@H]2CC[C@@H]3CC(c4c(-n5cnnn5)ccc(Cl)c4F)=CC(=O)N32)n1)C1CC1 (relative stereo) [Example 249]
IC50 / nM: 0.4

// query Form field: reported IC50 of CC12CC[C@@H](c3ncc(-c4ccnc(CO)c4F)[nH]3)N1C(=O)C=C(c1c(-n3cnnn3)ccc(Cl)c1F)C2 (stereo partly drawn) [Example 391]
// result 35.4

// query Item: O=C1C=C(c2c(-n3cnnn3)ccc(Cl)c2F)C[C@H]2CC[C@@H](c3ncc(-c4ccnc(N5CC6(COC6)C5)c4F)[nH]3)N12 (single isomer, unassigned) [Example 108]
// result 5.7

---

target: human plasma kallikrein (Homo sapiens (Human), UniProt P03952); assay: Kallikrein inhibition assay (FLINT) utilizing a quenched AMC peptide substrate; assay type: biochemical; details: 30 min preincubation, kinetic reads over 30 min, Z-Gly-Pro-Arg-AMC substrate 50 μM; read-out: Kallikrein Kin Inh IC50
Sequence (P03952 391-638): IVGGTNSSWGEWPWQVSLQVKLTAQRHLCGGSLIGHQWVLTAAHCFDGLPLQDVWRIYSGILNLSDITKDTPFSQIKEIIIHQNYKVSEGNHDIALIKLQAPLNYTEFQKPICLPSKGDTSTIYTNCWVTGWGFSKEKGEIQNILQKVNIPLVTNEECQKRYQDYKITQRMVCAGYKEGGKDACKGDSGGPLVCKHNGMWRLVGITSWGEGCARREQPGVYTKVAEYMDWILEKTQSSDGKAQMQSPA
Sequence (P03952 20-390 partner): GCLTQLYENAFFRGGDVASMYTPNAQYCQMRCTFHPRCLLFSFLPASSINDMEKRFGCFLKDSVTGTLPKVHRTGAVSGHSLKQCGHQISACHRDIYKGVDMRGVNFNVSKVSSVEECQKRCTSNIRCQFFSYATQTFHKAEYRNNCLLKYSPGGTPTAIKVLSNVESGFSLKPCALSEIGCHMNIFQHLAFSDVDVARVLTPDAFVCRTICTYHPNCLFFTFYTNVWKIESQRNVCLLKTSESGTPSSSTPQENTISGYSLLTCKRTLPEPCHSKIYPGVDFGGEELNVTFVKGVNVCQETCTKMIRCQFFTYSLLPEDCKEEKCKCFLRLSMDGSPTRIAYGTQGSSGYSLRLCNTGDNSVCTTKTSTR
recorded-metric: IC50 (nM)
Provide only the numeric value, understood in nM.

Example cases with answers are listed next.
compound: COC(=O)Nc1ccccc1-c1cnc([C@@H]2CC[C@H]3CC(c4c(-n5cnnn5)ccc(Cl)c4F)=CC(=O)N32)[nH]1 (relative stereo) [Example 302]
measured-on: human plasma kallikrein (Homo sapiens (Human), UniProt P03952)
unit-spec: nM
IC50: 29.1
--
compound: O=C1C=C(c2c(-n3cnnn3)ccc(Cl)c2F)CC2CC[C@@H](c3ncc(-c4ccc5[nH]c(=O)ncc5c4)[nH]3)N12 (stereo partly drawn) [Example 273]
measured-on: human plasma kallikrein (Homo sapiens (Human), UniProt P03952)
unit-spec: nM
IC50: 2
--
compound: [2H]c1cc(Cl)c(F)c(C2=CC(=O)N3[C@H](CC[C@H]3c3nc(-c4ccc(N)nc4F)c[nH]3)C2)c1-n1cnnn1 [Example 153]
measured-on: human plasma kallikrein (Homo sapiens (Human), UniProt P03952)
unit-spec: nM
IC50: 8.1
--
compound: O=C1OCCN1c1ccc(-c2cnc([C@@H]3CCC4CC(c5c(-n6cnnn6)ccc(Cl)c5F)=CC(=O)N43)[nH]2)cc1 (stereo partly drawn) [Example 318]
measured-on: human plasma kallikrein (Homo sapiens (Human), UniProt P03952)
unit-spec: nM
IC50: 71.5
--
compound: O=C1C=C(c2c(-n3cc(C(F)(F)F)nn3)ccc(Cl)c2F)C[C@H]2CC[C@@H](c3ncc(-c4ccnc(CO)c4F)[nH]3)N12 [Example 67]
measured-on: human plasma kallikrein (Homo sapiens (Human), UniProt P03952)
unit-spec: nM
IC50: 85.7

// query Form field: reported IC50 of C[C@@H](Oc1nccc(-c2cnc([C@@H]3CC[C@@H]4CC(c5c(-n6cnnn6)ccc(Cl)c5F)=CC(=O)N43)[nH]2)c1F)c1ncco1 (single isomer, unassigned) [Example 141]
// result 13

// query Item: Nc1cc(-c2[nH]c([C@@H]3CC[C@@H]4CC(c5c(-n6cnnn6)ccc(Cl)c5F)=CC(=O)N43)nc2Cl)ccn1 [Example 372]
// result 1.2

// query Item: C[C@@H](C#N)c1nccc(-c2cnc([C@@H]3CCC4CC(c5c(-n6cnnn6)ccc(Cl)c5F)=CC(=O)N43)[nH]2)c1F (relative stereo) [Example 164]
// result 16.6
